Ref: the supplement of paper PMC10065799

target: FGFR1 (UniProt P11362); assay: phosphorylation enrichment, bacterial display (enrichment ratio); higher = better substrate or ligand; peptides without Tyr show the background;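 note: 11-residue human phosphosite peptides and single-mutation variants displayed on the E. coli surface, counted by deep sequencing, each peptide's frequency after selection divided by its frequency in the unselected input library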;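 note: frequency after pTyr selection over input frequency; kinase dosed for 20-30% of maximal phosphorylation in three min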
Sequence (P11362 whole entry, looked up): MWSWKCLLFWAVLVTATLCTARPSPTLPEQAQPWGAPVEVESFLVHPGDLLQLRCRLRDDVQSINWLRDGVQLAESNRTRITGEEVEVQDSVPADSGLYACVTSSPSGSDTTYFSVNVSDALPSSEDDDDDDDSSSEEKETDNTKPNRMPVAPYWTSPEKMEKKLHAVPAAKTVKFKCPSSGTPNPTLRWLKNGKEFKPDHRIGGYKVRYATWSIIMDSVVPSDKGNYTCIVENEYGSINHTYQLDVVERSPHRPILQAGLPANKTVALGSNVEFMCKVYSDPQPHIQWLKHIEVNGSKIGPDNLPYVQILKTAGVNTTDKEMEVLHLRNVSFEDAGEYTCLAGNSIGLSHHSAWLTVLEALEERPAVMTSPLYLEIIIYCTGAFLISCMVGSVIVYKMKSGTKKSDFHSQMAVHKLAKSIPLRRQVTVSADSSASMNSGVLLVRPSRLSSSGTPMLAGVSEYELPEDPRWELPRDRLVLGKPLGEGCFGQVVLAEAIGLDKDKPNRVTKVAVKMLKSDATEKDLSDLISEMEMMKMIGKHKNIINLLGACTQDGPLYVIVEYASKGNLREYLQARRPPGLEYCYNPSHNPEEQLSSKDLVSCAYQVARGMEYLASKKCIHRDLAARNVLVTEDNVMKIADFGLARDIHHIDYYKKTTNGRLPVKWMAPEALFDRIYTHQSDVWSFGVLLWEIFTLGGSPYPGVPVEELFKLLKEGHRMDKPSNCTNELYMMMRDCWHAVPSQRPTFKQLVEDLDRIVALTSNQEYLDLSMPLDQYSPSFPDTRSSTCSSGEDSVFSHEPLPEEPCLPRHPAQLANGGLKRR
Answer each item with its documented phosphorylation enrichment.
A bare number is all that is needed in reply.

# input Which phosphorylation enrichment value is on record for ATPKGYERDAS [OTC_Y223_P225R] ?
# output 0.462

# input Which phosphorylation enrichment value is on record for RSSGPYGGGGQ [HNRNPA1_Y341] ?
# output 0.589

# input Which phosphorylation enrichment value is on record for RRNTFYASIAK [ACADM_Y353_YF] ?
# output 0.442

# input Which phosphorylation enrichment value is on record for AVRFIYTIDGS [DCX_Y105_G100A_YF] ?
# output 0.453

# input Which phosphorylation enrichment value is on record for FYDANYDGKEY [MAPRE2_Y162] ?
# output 0.699

# input Which phosphorylation enrichment value is on record for LTNDRYLATLT [IL6ST_Y396] ?
# output 0.676

# input Which phosphorylation enrichment value is on record for VDSAHYQLLET [DTX3L_Y385_K386Q] ?
# output 1.14

# input Which phosphorylation enrichment value is on record for RSDEDYLCREE [POR_Y573_Y575C] ?
# output 0.623

# input Which phosphorylation enrichment value is on record for ALMGPYHGQVL [HADHA_Y343_L342P] ?
# output 0.411

# input Which phosphorylation enrichment value is on record for YMLYQYLKQIE [RPAP3_Y569_D564Y] ?
# output 6.02

# input Which phosphorylation enrichment value is on record for HSDYQYGQRSQ [PKP2_Y168_S169G] ?
# output 0.357

# input Which phosphorylation enrichment value is on record for AAVPAYDKIRV [STXBP2_Y401] ?
# output 0.321

# input Which phosphorylation enrichment value is on record for FIATQYSLCPR [LBR_Y166_R169C_YF] ?
# output 0.475
